# TESTED_TARGET: Sodium-dependent serotonin transporter (Rattus norvegicus)
# Sequence (P31652 whole entry): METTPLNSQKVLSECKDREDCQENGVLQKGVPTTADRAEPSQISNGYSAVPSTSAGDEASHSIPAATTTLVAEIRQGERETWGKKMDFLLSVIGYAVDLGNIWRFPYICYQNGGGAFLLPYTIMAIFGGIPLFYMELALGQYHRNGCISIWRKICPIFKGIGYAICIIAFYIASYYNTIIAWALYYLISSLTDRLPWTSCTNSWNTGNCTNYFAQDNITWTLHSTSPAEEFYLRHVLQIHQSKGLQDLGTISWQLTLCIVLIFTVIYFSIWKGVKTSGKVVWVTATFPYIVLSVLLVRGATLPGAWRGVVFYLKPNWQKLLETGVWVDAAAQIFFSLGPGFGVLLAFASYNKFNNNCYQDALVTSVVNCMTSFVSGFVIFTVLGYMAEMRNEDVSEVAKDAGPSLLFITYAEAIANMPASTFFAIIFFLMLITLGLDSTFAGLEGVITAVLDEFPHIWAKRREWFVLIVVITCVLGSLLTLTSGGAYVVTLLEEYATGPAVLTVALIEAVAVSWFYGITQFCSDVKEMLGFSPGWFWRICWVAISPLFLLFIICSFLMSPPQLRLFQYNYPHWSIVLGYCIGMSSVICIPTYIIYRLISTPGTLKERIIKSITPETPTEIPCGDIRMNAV
pKi: −log10 of the molar value.
MEASURED_PROPERTY: pKi

>>> value_reported("CN1CCc2c(cccc2C(=O)NCC2(N3CCN(c4ccccc4)CC3)CCCCC2)C1")
7.70

----------
# ASSAY_METHOD_TEXT: Extraction ratio in mouse liver microsomes at 1 uM by LC/MS/MS analysis
# Assay type: ADME, Microsome
# RUN_PARAMETERS: read-out: ERH
MEASURED_PROPERTY: hepatic extraction ratio at 1 µM

>>> value_reported("CN1CCc2c(cccc2C(=O)NCC2(N3CCN(c4ccccc4)CC3)CCCCC2)C1")
0.9
>>> value_reported("O=C(NCC1(N2CCN(c3ccccc3)CC2)CCOCC1)c1cccnc1Sc1ccccc1")
"> 0.93"
